- Tested on: MM-1 cells
- procedure_summary: MTT assay of cell growth and survival, MM-1 cells
- Format: cell-based
- protocol_conditions: FIG. 31; 72 h, MTT, average of 4 determinations; read-out: IC50, MM-1 cells

- compound: "CCC[C@H](NC(=O)/C(C#N)=C/c1cccc(Br)n1)c1ccccc1 [Degrasyn]"
  IC50: "~1.2 µM"

Origin of values: patent US20100292229A1
